The measurements presented in this section are drawn from PubChem BioAssay AID1963451.

System: 521955-158-R6-J3-PDC complex spheroid growth, % test/control
Test: Anticancer human tumor 521955-158-R6-J3-PDC patient-derived pancreatic carcinoma cell line growth inhibition [Asc]
Settings: curve of first compound; second compound 10 µM
pIC50: −log10 of the molar value.

compound	pIC50
Cc1nc(N2CCC3(CC2)COC(C)C3N)c(CO)nc1Sc1ccnc(N)c1Cl (stereo not drawn) + Cc1c(S(C)(=O)=O)c(-c2cc(F)cc(N3CCN(c4ccc(NS(=O)(=O)c5ccc(NC(CCN6CCC(C(=O)OCCCP(=O)(O)O)CC6)CSc6ccccc6)c(S(=O)(=O)C(F)(F)F)c5)cc4)CC3)c2)c(-c2ccc(Cl)cc2)n1C(C)C	> 8.02
C=C(F)C(=O)N1CCN(c2nc(OCC3CCCN3C)nc3c2CCN(c2cccc4cccc(Cl)c24)C3)CC1CC#N (stereo not drawn) + Cc1c(S(C)(=O)=O)c(-c2cc(F)cc(N3CCN(c4ccc(NS(=O)(=O)c5ccc(NC(CCN6CCC(C(=O)OCCCP(=O)(O)O)CC6)CSc6ccccc6)c(S(=O)(=O)C(F)(F)F)c5)cc4)CC3)c2)c(-c2ccc(Cl)cc2)n1C(C)C	> 7.50
NC1CCC(NC2CC2c2ccccc2)CC1 (stereo not drawn) + Cc1c(S(C)(=O)=O)c(-c2cc(F)cc(N3CCN(c4ccc(NS(=O)(=O)c5ccc(NC(CCN6CCC(C(=O)OCCCP(=O)(O)O)CC6)CSc6ccccc6)c(S(=O)(=O)C(F)(F)F)c5)cc4)CC3)c2)c(-c2ccc(Cl)cc2)n1C(C)C	> 9.50

====

# maps each entry to its viability, T/C
Tested on: 521955-158-R6-J3-PDC complex spheroid growth, % test/control
Experiment: Anticancer human tumor 521955-158-R6-J3-PDC cell line growth inhibition [Asc];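 also: spheroids exposed to compounds for 7 days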;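 as to viability, T/C: 100% = DMSO vehicle control wells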
Details: second compound 0.0316 µM; first compound 3.16 µM; stronger effect = lower value

compound	scale unit	viability, T/C
C#Cc1c(F)ccc2cc(O)cc(-c3ncc4c(N5CC6CCC(C5)N6)nc(OCC56CCCN5CC(F)C6)nc4c3F)c12 (stereo not drawn) + CNC(C)C(=O)NC1CN(S(=O)(=O)c2cccc(S(=O)(=O)N3CCC4CCC(C(=O)NC(c5ccccc5)c5ccccc5)N4C(=O)C(NC(=O)C(C)NC)C3)c2)CCC2CCC(C(=O)NC(c3ccccc3)c3ccccc3)N2C1=O	%	25.6
C=C(F)C(=O)N1CCN(c2nc(OCC3CCCN3C)nc3c2CCN(c2cccc4cccc(Cl)c24)C3)CC1CC#N (stereo not drawn) + Cc1c(S(C)(=O)=O)c(-c2cc(F)cc(N3CCN(c4ccc(NS(=O)(=O)c5ccc(NC(CCN6CCC(C(=O)OCCCP(=O)(O)O)CC6)CSc6ccccc6)c(S(=O)(=O)C(F)(F)F)c5)cc4)CC3)c2)c(-c2ccc(Cl)cc2)n1C(C)C	%	59.1
C=CC(=O)N1CCN(c2nc(=O)n(-c3c(C)ccnc3C(C)C)c3nc(-c4c(O)cccc4F)c(F)cc23)C(C)C1 (stereo not drawn) + Cc1c(S(C)(=O)=O)c(-c2cc(F)cc(N3CCN(c4ccc(NS(=O)(=O)c5ccc(NC(CCN6CCC(C(=O)OCCCP(=O)(O)O)CC6)CSc6ccccc6)c(S(=O)(=O)C(F)(F)F)c5)cc4)CC3)c2)c(-c2ccc(Cl)cc2)n1C(C)C	%	79.7
O=C(c1cc(Cc2n[nH]c(=O)c3ccccc23)ccc1F)N1CCN(C(=O)C2CC2)CC1 + CNC(C)C(=O)NC1CN(S(=O)(=O)c2cccc(S(=O)(=O)N3CCC4CCC(C(=O)NC(c5ccccc5)c5ccccc5)N4C(=O)C(NC(=O)C(C)NC)C3)c2)CCC2CCC(C(=O)NC(c3ccccc3)c3ccccc3)N2C1=O	%	132
C#Cc1c(F)ccc2cc(O)cc(-c3ncc4c(N5CC6CCC(C5)N6)nc(OCC56CCCN5CC(F)C6)nc4c3F)c12 (stereo not drawn) + Cc1c(S(C)(=O)=O)c(-c2cc(F)cc(N3CCN(c4ccc(NS(=O)(=O)c5ccc(NC(CCN6CCC(C(=O)OCCCP(=O)(O)O)CC6)CSc6ccccc6)c(S(=O)(=O)C(F)(F)F)c5)cc4)CC3)c2)c(-c2ccc(Cl)cc2)n1C(C)C	%	18.4
C=C(F)C(=O)N1CCN(c2nc(OCC3CCCN3C)nc3c2CCN(c2cccc4cccc(Cl)c24)C3)CC1CC#N (stereo not drawn) + CNC(C)C(=O)NC1CN(S(=O)(=O)c2cccc(S(=O)(=O)N3CCC4CCC(C(=O)NC(c5ccccc5)c5ccccc5)N4C(=O)C(NC(=O)C(C)NC)C3)c2)CCC2CCC(C(=O)NC(c3ccccc3)c3ccccc3)N2C1=O	%	70.2
O=C(c1cc(Cc2n[nH]c(=O)c3ccccc23)ccc1F)N1CCN(C(=O)C2CC2)CC1 + Cc1c(S(C)(=O)=O)c(-c2cc(F)cc(N3CCN(c4ccc(NS(=O)(=O)c5ccc(NC(CCN6CCC(C(=O)OCCCP(=O)(O)O)CC6)CSc6ccccc6)c(S(=O)(=O)C(F)(F)F)c5)cc4)CC3)c2)c(-c2ccc(Cl)cc2)n1C(C)C	%	75.6
C=CC(=O)N1CCN(c2nc(=O)n(-c3c(C)ccnc3C(C)C)c3nc(-c4c(O)cccc4F)c(F)cc23)C(C)C1 (stereo not drawn) + CNC(C)C(=O)NC1CN(S(=O)(=O)c2cccc(S(=O)(=O)N3CCC4CCC(C(=O)NC(c5ccccc5)c5ccccc5)N4C(=O)C(NC(=O)C(C)NC)C3)c2)CCC2CCC(C(=O)NC(c3ccccc3)c3ccccc3)N2C1=O	%	104

====

Test system: 521955-158-R6-J3-PDC complex spheroid growth, % test/control
Assay: Anticancer human tumor 521955-158-R6-J3-PDC cell line growth inhibition [Asc]; active means viability on the fitted dose curve at most 10% of control; inactive means the rest;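 also: spheroids exposed to compounds for 7 days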
Conditions: second compound 0.03 µM; first compound 10 µM
Classes used: label 1 (active), label 0 (inactive)

compound	cat
C#Cc1c(F)ccc2cc(O)cc(-c3ncc4c(N5CC6CCC(C5)N6)nc(OCC56CCCN5CC(F)C6)nc4c3F)c12 (centres undefined) + CCN1C(C(=O)NC23CCC(C(=O)O)(CC2)CC3)C(c2cccc(Cl)c2F)C2(C(=O)Nc3cc(Cl)ccc32)C12CCCCC2	label 0
C=C(F)C(=O)N1CCN(c2nc(OCC3CCCN3C)nc3c2CCN(c2cccc4cccc(Cl)c24)C3)CC1CC#N (centres undefined) + CCN1C(C(=O)NC23CCC(C(=O)O)(CC2)CC3)C(c2cccc(Cl)c2F)C2(C(=O)Nc3cc(Cl)ccc32)C12CCCCC2	label 1
O=C(c1cc(Cc2n[nH]c(=O)c3ccccc23)ccc1F)N1CCN(C(=O)C2CC2)CC1 + CCN1C(C(=O)NC23CCC(C(=O)O)(CC2)CC3)C(c2cccc(Cl)c2F)C2(C(=O)Nc3cc(Cl)ccc32)C12CCCCC2	label 0
C=CC(=O)N1CCN(c2nc(=O)n(-c3c(C)ccnc3C(C)C)c3nc(-c4c(O)cccc4F)c(F)cc23)C(C)C1 (centres undefined) + CCN1C(C(=O)NC23CCC(C(=O)O)(CC2)CC3)C(c2cccc(Cl)c2F)C2(C(=O)Nc3cc(Cl)ccc32)C12CCCCC2	label 0

====

# maps each entry to its IC50
Test system: 521955-158-R6-J3-PDC complex spheroid growth, % test/control
Test: Anticancer human tumor 521955-158-R6-J3-PDC cell line growth inhibition [Asc];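 also: spheroids exposed to compounds for 7 days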
Conditions: curve of first compound; second compound 10 µM
parameter: IC50

compound	parameter	result
CCN1CCN(Cc2ccc(Nc3ncc(F)c(-c4cc(F)c5nc(C)n(C(C)C)c5c4)n3)nc2)CC1 + Cc1c(S(C)(=O)=O)c(-c2cc(F)cc(N3CCN(c4ccc(NS(=O)(=O)c5ccc(NC(CCN6CCC(C(=O)OCCCP(=O)(O)O)CC6)CSc6ccccc6)c(S(=O)(=O)C(F)(F)F)c5)cc4)CC3)c2)c(-c2ccc(Cl)cc2)n1C(C)C	IC50	< 3.16 nM
NC(=O)C(=Cn1cnc(-c2cc(C(F)(F)F)cc(C(F)(F)F)c2)n1)c1cncnc1 + Cc1c(S(C)(=O)=O)c(-c2cc(F)cc(N3CCN(c4ccc(NS(=O)(=O)c5ccc(NC(CCN6CCC(C(=O)OCCCP(=O)(O)O)CC6)CSc6ccccc6)c(S(=O)(=O)C(F)(F)F)c5)cc4)CC3)c2)c(-c2ccc(Cl)cc2)n1C(C)C	IC50	< 0.949 nM
Cn1ncnc1[C@H]1c2n[nH]c(=O)c3cc(F)cc(c23)N[C@@H]1c1ccc(F)cc1 + Cc1c(S(C)(=O)=O)c(-c2cc(F)cc(N3CCN(c4ccc(NS(=O)(=O)c5ccc(NC(CCN6CCC(C(=O)OCCCP(=O)(O)O)CC6)CSc6ccccc6)c(S(=O)(=O)C(F)(F)F)c5)cc4)CC3)c2)c(-c2ccc(Cl)cc2)n1C(C)C	IC50	< 0.316 nM

====

Test system: 521955-158-R6-J3-PDC complex spheroid growth, % test/control
Experiment: Anticancer human tumor 521955-158-R6-J3-PDC cell line growth inhibition [Asc];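 also: spheroids exposed to compounds for 7 days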;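 as to viability, T/C: 100% = DMSO vehicle control wells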
Details: second compound 1 µM; first compound 0.0316 µM; stronger effect = lower value
Description: Multicellular complex tumor spheroid response to apoptosis pathway targeting inhibitors Alrizomadlin, Pelcitoclax, and Dasminapant in combination with a variety of drugs and investigational agents in selected tumor cell lines […] Compounds. […] If the clinical Cmax for an agent had not been determined, the highest concentration tested was 10 microM. […]
Please note: viability, T/C exactly at 40% is no. Only values below 40% get yes.

compound	cat
C=C(F)C(=O)N1CCN(c2nc(OCC3CCCN3C)nc3c2CCN(c2cccc4cccc(Cl)c24)C3)CC1CC#N (configuration not stated) + CNC(C)C(=O)NC1CN(S(=O)(=O)c2cccc(S(=O)(=O)N3CCC4CCC(C(=O)NC(c5ccccc5)c5ccccc5)N4C(=O)C(NC(=O)C(C)NC)C3)c2)CCC2CCC(C(=O)NC(c3ccccc3)c3ccccc3)N2C1=O	no
Cn1ncnc1[C@H]1c2n[nH]c(=O)c3cc(F)cc(c23)N[C@@H]1c1ccc(F)cc1 + CNC(C)C(=O)NC1CN(S(=O)(=O)c2cccc(S(=O)(=O)N3CCC4CCC(C(=O)NC(c5ccccc5)c5ccccc5)N4C(=O)C(NC(=O)C(C)NC)C3)c2)CCC2CCC(C(=O)NC(c3ccccc3)c3ccccc3)N2C1=O	no
NC1CCC(NC2CC2c2ccccc2)CC1 (configuration not stated) + Cc1c(S(C)(=O)=O)c(-c2cc(F)cc(N3CCN(c4ccc(NS(=O)(=O)c5ccc(NC(CCN6CCC(C(=O)OCCCP(=O)(O)O)CC6)CSc6ccccc6)c(S(=O)(=O)C(F)(F)F)c5)cc4)CC3)c2)c(-c2ccc(Cl)cc2)n1C(C)C	no
Cn1ncnc1[C@H]1c2n[nH]c(=O)c3cc(F)cc(c23)N[C@@H]1c1ccc(F)cc1 + Cc1c(S(C)(=O)=O)c(-c2cc(F)cc(N3CCN(c4ccc(NS(=O)(=O)c5ccc(NC(CCN6CCC(C(=O)OCCCP(=O)(O)O)CC6)CSc6ccccc6)c(S(=O)(=O)C(F)(F)F)c5)cc4)CC3)c2)c(-c2ccc(Cl)cc2)n1C(C)C	yes
C#Cc1c(F)ccc2cc(O)cc(-c3ncc4c(N5CC6CCC(C5)N6)nc(OCC56CCCN5CC(F)C6)nc4c3F)c12 (configuration not stated) + Cc1c(S(C)(=O)=O)c(-c2cc(F)cc(N3CCN(c4ccc(NS(=O)(=O)c5ccc(NC(CCN6CCC(C(=O)OCCCP(=O)(O)O)CC6)CSc6ccccc6)c(S(=O)(=O)C(F)(F)F)c5)cc4)CC3)c2)c(-c2ccc(Cl)cc2)n1C(C)C	yes
C=CC(=O)N1CCN(c2nc(=O)n(-c3c(C)ccnc3C(C)C)c3nc(-c4c(O)cccc4F)c(F)cc23)C(C)C1 (configuration not stated) + Cc1c(S(C)(=O)=O)c(-c2cc(F)cc(N3CCN(c4ccc(NS(=O)(=O)c5ccc(NC(CCN6CCC(C(=O)OCCCP(=O)(O)O)CC6)CSc6ccccc6)c(S(=O)(=O)C(F)(F)F)c5)cc4)CC3)c2)c(-c2ccc(Cl)cc2)n1C(C)C	no
C#Cc1c(F)ccc2cc(O)cc(-c3ncc4c(N5CC6CCC(C5)N6)nc(OCC56CCCN5CC(F)C6)nc4c3F)c12 (configuration not stated) + CNC(C)C(=O)NC1CN(S(=O)(=O)c2cccc(S(=O)(=O)N3CCC4CCC(C(=O)NC(c5ccccc5)c5ccccc5)N4C(=O)C(NC(=O)C(C)NC)C3)c2)CCC2CCC(C(=O)NC(c3ccccc3)c3ccccc3)N2C1=O	no
